Kindly supply the reported inhibition values for the records listed here.
Assay: H1N1 influenza NS1A inhibitors, functional cell based assay (AID 504329)
Settings: percent inhibition, at 12.5 µM, stronger effect = higher value
About 1,000 (0.29%) of roughly 340,000 compounds were called active. These entries were drawn from the full list. Measured potencies and affinities stand elsewhere.

Below are some compounds; for each one, tell me its inhibition.
1. COc1ccc(NC(=O)COC(=O)c2ccc3ccccc3n2)cc1
2. Cc1ccc(C(=O)NNC(=O)c2ccc3ccccc3c2O)cc1
3. COc1ccc(NC(=O)c2cc([N+](=O)[O-])ccc2NC(=O)CNC2CCCCC2C)c(OC)c1 (stereo unspecified)
4. CCN(CC)c1ccc(NC(=O)COC(=O)c2ccc3ccccc3n2)cc1
5. COc1cc(NC(=O)c2cc([N+](=O)[O-])ccc2NC(=O)CNCc2ccccn2)cc(OC)c1
6. COc1ccc(N=Nc2ccc3ccccc3c2)c(O)c1

1. -0.01% (inactive)
2. -5% (inactive)
3. -6.01% (inactive)
4. 17.3% (inactive)
5. -1.96% (inactive)
6. 25.1% (inactive)

====

Assay: H1N1 influenza NS1A inhibitors, functional cell based assay (AID 504329)
Settings: percent inhibition, at 12.5 µM, stronger effect = higher value
Among all 340,000 compounds or so, about 1,000 (0.29%) were called active. The list is a sample of the results. Results with a measured potency or affinity are listed apart.
Recorded metric: inhibition (%)
Give bare numbers, in %.

CC(C)(C)C(=O)O/N=C1/C(=O)N(c2ccccc2)c2ccccc21
-9.74
CC(=O)N(Cc1ccc(F)cc1)c1cccc(C)c1C
5.28
O=C1C(Cl)=C(NCCc2ccccc2)C(=O)c2ccccc21
28.7
Cc1[nH]c(=O)c(C#N)c(C)c1CSc1ncccn1
-0.63
Cc1ccc(C)c(S(=O)(=O)N2CCN(Cc3ccc(O)c4ncccc34)CC2)c1
-17.5

Return reported inhibition values for all items listed beneath this line.
1. CC(=O)Nc1nonc1NC(=O)COc1ccccc1
2. CCCNC1=C(N(C(C)=O)c2cccc(F)c2)C(=O)c2ccccc2C1=O
3. Cc1ccc(NCc2ccc(O)c3ncccc23)cc1C
4. COCc1cc(=O)[nH]c(SCC(=O)N2CCOCC2)n1
5. O=C(Nc1c2c(nn1-c1cccc(Cl)c1)CS(=O)(=O)C2)c1ccc2c(c1)OCO2
6. COC(=O)c1cc(C(=O)OCC(=O)NC2CCS(=O)(=O)C2)cc([N+](=O)[O-])c1 (stereo not given)

1. -0.08
2. -1.3
3. -2.65
4. -7.79
5. 0.57
6. 6.69

# return inhibition for each item in the list
1. CN(CC(=O)NC(=O)NC1CCCCC1)c1ccccc1
2. COc1cccc(N2CCN(C(=S)Nc3ccccc3)CC2)c1

1. -19.7
2. 4.19

====

Assay: H1N1 influenza NS1A inhibitors, functional cell based assay (AID 504329)
Conditions: percent inhibition, at 12.5 µM, stronger effect = higher value
About 1,000 (0.29%) of roughly 340,000 compounds were called active. The list is a sample of the results. Entries with a potency or affinity are not part of this list.
Provide the reported inhibition of each item.
Numbers only, in %.

COC(=O)/C=C/c1ccc(OC(=O)c2ccncc2)cc1
-0.93
Nc1ccc2c(c1)C(=O)c1ccc(Cl)cc1-2
-15.2
Cc1ccc(CN2CCC(n3nccc3NC(=O)CCOc3ccccc3)CC2)cc1C
-4.94
Oc1cncc(-c2cccnc2)c1
-6.57
O=S(=O)(c1ccc(S(=O)(=O)N2CCOCC2)cc1)N1CCCC1
4.18

# batch size: 7; output inhibition per entry
1. O=[N+]([O-])c1ccc(O)c(/C=N/Nc2ccccc2Cl)c1
2. COc1ccc(C(=O)C2CN(C)CC2c2ccc(Cl)cc2)cc1 (stereo not given)
3. O=[N+]([O-])c1cccc(/C=N/Nc2ccccn2)c1
4. CCCCCN(C(=O)CCC(=O)OCC(=O)c1cccc(OC)c1)c1c(N)n(CCCC)c(=O)[nH]c1=O
5. CCN(CC)c1ccc(C(=O)O)cc1
6. N/C(=N\OC(=O)Cc1ccccc1)c1ccccn1
7. Cc1c(OCC(F)(F)F)ccnc1CSc1nc2ccccc2[nH]1

-14.4
-2.24
0.08
-2.41
15.6
-5.24
-9.09

Required: inhibition, one value per compound below.
1. CCc1cc(C(=O)N2CCCC(C(=O)c3ccc(Oc4ccccc4)cc3)C2)n(C)n1 (stereo not given)
2. CC(C)(C)CC(C)(C)NCC(O)COc1ccc2c(c1)CCC2 (stereo not given)
3. CN(C)CCNc1ccc(CO)c2oc3ccc(O)cc3c(=O)c12
4. COC(=O)CNC(=O)CN(c1ccc(OC)cc1OC)S(=O)(=O)c1ccccc1
5. COc1ccc(-c2c(NC(=O)c3ccco3)oc3ccccc3c2=O)cc1OC

[-0.31, 5.01, 2.86, -1.66, 9.22]

Working through the 8 compounds below one at a time, give inhibition for each.
1. O=[N+]([O-])c1ccc(/C=N/Nc2ccccn2)cc1
2. CCO/C=C1/C(=O)N(c2ccc(OC)cc2)C(=O)c2ccccc21
3. Cc1ccc(NS(=O)(=O)c2cc([N+](=O)[O-])ccc2NNC(=S)Nc2cc(C)ccc2C)c(C)c1
4. O=C(CSc1nnc(SCc2ccc(Cl)cc2)s1)N/N=C/c1ccc(C(=O)O)cc1
5. COCCn1ccc2c(OCC(=O)NCCc3ccccc3)cccc2c1=O
6. CCC(C)[C@H](NC(=O)[C@@H]1Cc2c([nH]c3ccccc23)C2c3ccccc3C(=O)N21)C(=O)NCC1CCCO1 (stereo not given in full)
7. COCCC(=O)N1CCC(Oc2ccc(C(=O)NC3CCOC(C)(C)C3)cc2)CC1 (stereo not given)
8. O=C(O)c1cccc(NC(=O)c2ccccc2NC(=O)c2ccco2)c1

-3.42
1.21
21.2
-0.08
-4.46
0.06
5.89
-7.51

Please go through the list and note inhibition for each compound.
1. CN(C)/C=C(\C(=O)c1cccc(Cl)c1)c1nnnn1-c1ccccc1
2. CC1Cc2ccccc2N1C(=O)COC(=O)c1ccc(Cl)c(S(=O)(=O)N2CCOCC2)c1 (stereo not given)
3. COc1ccc(Nc2cccc3ccccc23)cc1
4. O=C(CNC(=O)c1ccco1)N/N=C/c1c[nH]c2ccccc12
5. O=[N+]([O-])c1ccc(Cl)cc1C=NNc1ccccn1
6. O=C(Cc1cccs1)Nc1nnc(SCC(=O)NC2CCCCC2)s1
7. Nc1ccccc1Nc1ccccc1
8. COc1cc(/C=C/C(=O)OCC(=O)NCCN2C(=O)CSC2=O)ccc1OCC#N

1: -1.13; 2: 9.33; 3: -1.24; 4: -1; 5: -1.7; 6: 3.29; 7: 18.3; 8: 1.99

Okay, here is my list. What is inhibition for each of these?
1. S=C(NCc1cccs1)NCC1CCCO1 (stereo not given)
2. O=[N+]([O-])c1ccc(NN=Cc2cc(Br)ccc2O)nc1

-5.35
6.5
